The values you see were collected from ChEMBL document CHEMBL1137492.

# TARGET: Adenosine receptor A2a (Rattus norvegicus) (UniProt P30543)
# Sequence (P30543 whole entry): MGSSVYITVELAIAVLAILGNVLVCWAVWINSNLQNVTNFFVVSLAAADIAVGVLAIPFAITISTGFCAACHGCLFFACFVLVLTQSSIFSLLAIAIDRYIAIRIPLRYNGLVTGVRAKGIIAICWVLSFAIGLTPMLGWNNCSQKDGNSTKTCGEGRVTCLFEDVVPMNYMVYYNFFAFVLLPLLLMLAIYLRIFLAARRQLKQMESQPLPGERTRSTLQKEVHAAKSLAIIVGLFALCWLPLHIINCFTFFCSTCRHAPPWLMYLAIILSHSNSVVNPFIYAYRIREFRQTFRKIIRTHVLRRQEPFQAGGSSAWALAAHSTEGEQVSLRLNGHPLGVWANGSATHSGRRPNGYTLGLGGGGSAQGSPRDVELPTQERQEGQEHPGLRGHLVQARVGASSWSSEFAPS
# TEST_PROTOCOL: Displacement of [3H]MSX2 from adenosine A2A receptor in rat brain striatal membrane at 10 uM
# Type: cell membranes
Would you mind telling me the reported Activity of each entry?
// note: answer is a bare numeric in %

Please give the measured Activity for this compound: Cn1c(=O)c2c(nc3n2CCCN3CCOC(=O)Nc2cccc(Cl)c2)n(C)c1=O
33

Please give the measured Activity for this compound: Cn1c(=O)c2c(nc3n2CCCN3CCOC(=O)Nc2ccc(F)cc2)n(C)c1=O
42

Please give the measured Activity for this compound: Cn1c(=O)c2c(nc3n2CCCN3CCOC(=O)Nc2ccccc2)n(C)c1=O
35

Please give the measured Activity for this compound: Cn1c(=O)c2c(nc3n2CCCN3CCOC(=O)Nc2ccc(Cl)cc2)n(C)c1=O
32
